target.or.test.system: S-ribosylhomocysteine lyase (Escherichia coli K-12) (UniProt P45578)
Sequence (P45578 whole entry): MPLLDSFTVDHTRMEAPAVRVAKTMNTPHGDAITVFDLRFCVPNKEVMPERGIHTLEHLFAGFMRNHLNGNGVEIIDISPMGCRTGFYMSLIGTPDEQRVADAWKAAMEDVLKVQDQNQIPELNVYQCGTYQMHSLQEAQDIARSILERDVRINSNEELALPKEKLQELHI
measurement.protocol: Inhibition of Escherichia coli LuxS using S-ribosyl-homocysteine substrate at pH 7 after 10 mins by fluorimetric assay
Calls of active or inactive are those of the source. No cut-off for these calls is given here.
readout.type: inhibition

- O=C1C=C/C(=C/Br)O1: Dose-dependent effect
- CCCCC1=CC(=C(Br)Br)OC1=O: Active
- O=C1C=CC(=C(Br)Br)O1: Active
- CCCCC1=C(Br)/C(=C/Br)OC1=O: Dose-dependent effect
